The measured values listed here are drawn from patent US20020107401A1.

System: wheat variety 'OSLO'
Test Details: Chemical hybridizing agent assay for male sterility (male gametocidal activity), foliar spray, seed counts
Assay type: in vivo
Condition Context: Table 2; rate 125 μg/plant, foliar, Feekes 8
Endpoint Name: Sterility (%)

[[record]]
molecule = "COP(=O)(OC)c1cnn(C2CCCCC2)c1O"
subject_of_test = "wheat variety 'OSLO'"
endpoint_name = "Sterility (%)"
readout_unit = "%"
value = 3

[[record]]
molecule = "Cc1cc(C)cc(-n2ncc(P(=O)([O-])O)c2O)c1.[K+]"
subject_of_test = "wheat variety 'OSLO'"
endpoint_name = "Sterility (%)"
readout_unit = "%"
value = 11

[[record]]
molecule = "COP(=O)(OC)c1cnn(-c2ccc(Cl)cc2)c1OCc1ccc(Cl)cc1"
subject_of_test = "wheat variety 'OSLO'"
endpoint_name = "Sterility (%)"
readout_unit = "%"
value = 80

[[record]]
molecule = "COP(=O)(OC)c1cnn(-c2ccc(Cl)cc2)c1O"
subject_of_test = "wheat variety 'OSLO'"
endpoint_name = "Sterility (%)"
readout_unit = "%"
value = 34

[[record]]
molecule = "COP(=O)(OC)c1c(-c2ccccc2)nn(-c2cc(C)cc(C)c2)c1O [Compound 10b]"
subject_of_test = "wheat variety 'OSLO'"
endpoint_name = "Sterility (%)"
readout_unit = "%"
value = 0

[[record]]
molecule = "COP(=O)([O-])c1cnn(-c2cc(C)cc(C)c2)c1O.[K+]"
subject_of_test = "wheat variety 'OSLO'"
endpoint_name = "Sterility (%)"
readout_unit = "%"
value = 28

[[record]]
molecule = "COP(=O)(OC)c1c(-c2ccccc2)nn(-c2ccc(Cl)cc2)c1O [Compound 10a]"
subject_of_test = "wheat variety 'OSLO'"
endpoint_name = "Sterility (%)"
readout_unit = "%"
value = 0

[[record]]
molecule = "COP(=O)(OC)c1cnn(-c2ccc(Cl)cc2)c1OCc1ccccc1[N+](=O)[O-]"
subject_of_test = "wheat variety 'OSLO'"
endpoint_name = "Sterility (%)"
readout_unit = "%"
value = 0

[[record]]
molecule = "COP(=O)(OC)c1cnn(-c2ccc(F)cc2)c1O"
subject_of_test = "wheat variety 'OSLO'"
endpoint_name = "Sterility (%)"
readout_unit = "%"
value = 30

[[record]]
molecule = "COP(=O)(OC)c1cnn(-c2ccc(Br)cc2)c1O"
subject_of_test = "wheat variety 'OSLO'"
endpoint_name = "Sterility (%)"
readout_unit = "%"
value = 0

[[record]]
molecule = "COP(=O)(OC)c1cnn(-c2ccccc2Cl)c1O"
subject_of_test = "wheat variety 'OSLO'"
endpoint_name = "Sterility (%)"
readout_unit = "%"
value = 29

[[record]]
molecule = "O=P(O)(O)C1=CNN(c2ccc(Cl)cc2)C1O (stereo not drawn)"
subject_of_test = "wheat variety 'OSLO'"
endpoint_name = "Sterility (%)"
readout_unit = "%"
value = 13


---

Tested on: wheat variety 'OSLO'
Test Details: Chemical hybridizing agent assay for male sterility (male gametocidal activity), foliar spray, seed counts
Format: in vivo
Condition Context: Table 2; rate 50 μg/plant, foliar, Feekes 8
Protocol: The compounds of structure 3 and analogs are applied at a rate of 50-1000 μg/plant to cause pollen sterility. The male gametocidal activity is determined on the wheat variety ‘OSLO’, a double-dwarf hard red spring wheat. […] The chemical hybridizing agent Genesis® (a registered Trade Mark of the Monsanto Co) is used as the positive control and for comparative purposes as to the rate of application and the efficacy as determined by percent sterility. […]
Endpoint Name: Sterility (%)

[[record]]
molecule = "COP(=O)(OC)c1cnn(-c2ccc(Cl)cc2)c1OCc1ccccc1[N+](=O)[O-]"
endpoint_name = "Sterility (%)"
value = 16

[[record]]
molecule = "COP(=O)(OC)c1cnn(C2CCCCC2)c1O"
endpoint_name = "Sterility (%)"
value = 15

[[record]]
molecule = "COP(=O)(OC)c1c(-c2ccccc2)nn(-c2ccc(Cl)cc2)c1O [Compound 10a]"
endpoint_name = "Sterility (%)"
value = 1

[[record]]
molecule = "COP(=O)(OC)c1cnn(-c2ccc(F)cc2)c1O"
endpoint_name = "Sterility (%)"
value = 23

[[record]]
molecule = "COP(=O)(OC)c1cnn(-c2ccc(Cl)cc2)c1O"
endpoint_name = "Sterility (%)"
value = 39

[[record]]
molecule = "COP(=O)(OC)c1cnn(-c2ccccc2Cl)c1O"
endpoint_name = "Sterility (%)"
value = 25

[[record]]
molecule = "O=P(O)(O)C1=CNN(c2ccc(Cl)cc2)C1O (stereo not drawn)"
endpoint_name = "Sterility (%)"
value = 31

[[record]]
molecule = "Cc1cc(C)cc(-n2ncc(P(=O)([O-])O)c2O)c1.[K+]"
endpoint_name = "Sterility (%)"
value = 15

[[record]]
molecule = "COP(=O)(OC)c1cnn(-c2ccc(Cl)cc2)c1OCc1ccc(Cl)cc1"
endpoint_name = "Sterility (%)"
value = 48

